# test-target: PPARα (Homo sapiens)
# Sequence (Q07869 167-468 limits assumed): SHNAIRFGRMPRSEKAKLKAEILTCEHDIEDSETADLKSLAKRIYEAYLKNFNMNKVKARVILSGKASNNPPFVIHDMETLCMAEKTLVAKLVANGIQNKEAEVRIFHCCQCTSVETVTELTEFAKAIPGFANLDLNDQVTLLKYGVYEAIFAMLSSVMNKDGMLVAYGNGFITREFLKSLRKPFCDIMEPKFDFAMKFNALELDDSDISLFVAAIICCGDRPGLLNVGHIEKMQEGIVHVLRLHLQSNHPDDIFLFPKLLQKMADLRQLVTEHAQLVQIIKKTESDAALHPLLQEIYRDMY
Listing: IC50 of selected compounds
reported-property: IC50 (nM)

[[record]]
input_smiles = "O=C(O)Cn1ccc2ccc(OCCCC#Cc3cccc(OC(F)(F)F)c3)cc21"
reported_property = "IC50"
assay_value = 317

[[record]]
input_smiles = "O=C(O)Cn1ccc2cc(OCCCC#Cc3ccc(OC(F)(F)F)cc3)ccc21"
reported_property = "IC50"
assay_value = 74

